experiment: Retention time of the compound by HPLC analysis; format: physicochemical
Under this convention, yes denotes Retention_time strictly below 9 min and no denotes Retention_time at or above 9 min.

Completed entries (count: 5):
{"SMILES_INPUT": "O=C(Nc1ccc(-c2cccnc2)c(OCc2ccccc2)c1)c1ccc(F)cc1", "CLASS": "yes"}
{"SMILES_INPUT": "O=[N+]([O-])c1ccc(Cc2cccnc2)c(OCCc2ccccc2)c1", "CLASS": "no"}
{"SMILES_INPUT": "CN(C)C(=O)c1ccc(-c2ccncc2)c(OCCc2ccccc2)c1", "CLASS": "yes"}
{"SMILES_INPUT": "CN(C)C(=O)c1ccc(-c2cccnc2)c(OCCc2ccccc2)c1", "CLASS": "yes"}
{"SMILES_INPUT": "O=[N+]([O-])c1ccc(-c2ccncc2)cc1OCCc1ccccc1", "CLASS": "no"}

Confirm or reject: Retention_time of Nc1ccc(-c2cccnc2)c(OCc2ccccc2)c1 lies strictly below 9 min
yes

Confirm or reject: Retention_time of c1ccc(CCOc2cccnc2-c2cccnc2)cc1 lies strictly below 9 min
yes

---

assay: Retention time of the compound by HPLC analysis; type: physicochemical
RECORDED_METRIC: Retention_time (min)
Kindly provide the numeric value in min only, without the unit symbol.

Consider the reported Retention_time for these compounds:
{"SMILES_INPUT": "c1ccc(CCOc2cccnc2-c2ccncc2)cc1", "Retention_time (min)": 7.91}
{"SMILES_INPUT": "Fc1ccc(-c2ccncc2)c(OCCc2ccccc2)c1", "Retention_time (min)": 9.32}

Turning to the following compound.
// returns reported Retention_time for input FC(F)(F)c1ccc(-c2ccncc2)c(OCCc2ccccc2)c1
10.13

---

species on record: Homo sapiens; test: Selectivity index, ratio of IC50 for human CYP11B2 to IC50 for human CYP11B1
Under this convention, Y denotes Selectivity Index strictly below 0.9 and N denotes Selectivity Index at or above 0.9.

{"SMILES_INPUT": "O=[N+]([O-])c1ccc(-c2ccncc2)c(OCCCc2ccccc2)c1", "CLASS": "N"}
{"SMILES_INPUT": "O=C1CCc2cc(-c3cccnc3)c(OCc3ccccc3)cc2N1", "CLASS": "Y"}
{"SMILES_INPUT": "Fc1ccc(-c2cccnc2)c(OCCc2ccccc2)c1", "CLASS": "N"}
{"SMILES_INPUT": "COc1cc2c(cc1-c1cccnc1)CCC(=O)N2", "CLASS": "Y"}

Confirm or reject: Selectivity Index of O=[N+]([O-])c1ccc(-c2ccncc2)c(OCCc2ccccc2)c1 lies strictly below 0.9
N

Confirm or reject: Selectivity Index of O=[N+]([O-])c1ccc(-c2cccnc2)c(OCc2ccccc2)c1 lies strictly below 0.9
Y

Confirm or reject: Selectivity Index of CN(C)C(=O)c1ccc(-c2cccnc2)c(OCCc2ccccc2)c1 lies strictly below 0.9
Y

Confirm or reject: Selectivity Index of O=[N+]([O-])c1ccc(Cc2ccncc2)c(OCCc2ccccc2)c1 lies strictly below 0.9
N

Confirm or reject: Selectivity Index of O=[N+]([O-])c1ccc(-c2cccnc2)c(OCCCc2ccccc2)c1 lies strictly below 0.9
N

---

target: Cytochrome P450 11B1, mitochondrial (Rattus norvegicus, UniProt P15393)
Sequence (P15393 whole entry): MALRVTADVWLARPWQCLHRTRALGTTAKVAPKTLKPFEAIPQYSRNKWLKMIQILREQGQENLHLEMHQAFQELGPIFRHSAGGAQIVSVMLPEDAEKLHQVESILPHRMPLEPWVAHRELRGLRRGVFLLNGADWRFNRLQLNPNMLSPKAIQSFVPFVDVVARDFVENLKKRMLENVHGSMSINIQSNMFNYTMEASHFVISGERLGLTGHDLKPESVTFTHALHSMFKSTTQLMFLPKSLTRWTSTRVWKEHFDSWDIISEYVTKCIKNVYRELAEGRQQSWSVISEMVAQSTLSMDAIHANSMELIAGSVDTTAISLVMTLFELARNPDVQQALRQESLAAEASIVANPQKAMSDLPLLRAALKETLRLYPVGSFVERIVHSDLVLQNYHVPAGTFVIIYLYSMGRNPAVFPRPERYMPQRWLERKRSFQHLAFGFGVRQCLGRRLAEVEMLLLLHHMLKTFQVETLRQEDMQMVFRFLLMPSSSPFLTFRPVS
RECORDED_METRIC: pIC50
# log scale: pIC50 equals minus log10 of the concentration in mol/L

{"COMPOUND": "N#Cc1ccc(-c2cccnc2)c(OCCc2ccccc2)c1", "pIC50": 6.27}
{"COMPOUND": "O=[N+]([O-])c1ccc(Cc2ccncc2)c(OCCc2ccccc2)c1", "pIC50": 5.55}
{"COMPOUND": "CC(C)(C(=O)c1cccnc1)c1cccnc1 [METYRAPONE]", "pIC50": 5.34}
{"COMPOUND": "O=[N+]([O-])c1ccc(-c2ccncc2)c(OCCCc2ccccc2)c1", "pIC50": 6.43}
{"COMPOUND": "O=[N+]([O-])c1ccc(-c2cccnc2)c(OCCCc2ccccc2)c1", "pIC50": 5.68}
{"COMPOUND": "O=[N+]([O-])c1ccc(Cc2cccnc2)c(OCCc2ccccc2)c1", "pIC50": 6.15}

// returns reported pIC50 for input N#Cc1ccc(-c2ccncc2)c(OCCc2ccccc2)c1
6.36

// returns reported pIC50 for input O=[N+]([O-])c1ccc(-c2cccnc2)c(OCCc2ccccc2)c1
5.88

// returns reported pIC50 for input O=C1CCc2cc(-c3cccnc3)c(OCc3ccccc3)cc2N1
5.82

---

The compounds below have reported pIC50 for Cytochrome P450 11B2, mitochondrial (Homo sapiens, UniProt P19099).
# log scale: pIC50 equals minus log10 of the concentration in mol/L

{"SMILES_INPUT": "O=[N+]([O-])c1ccc(-c2ccncc2)cc1OCCc1ccccc1", "pIC50": 6.15}
{"SMILES_INPUT": "O=[N+]([O-])c1ccc(-c2cccnc2)cc1OCCc1ccccc1", "pIC50": 6.35}

Which measured pIC50 belongs to O=[N+]([O-])c1ccc(-c2ccncc2)c(OCCc2ccccc2)c1 , tested on Cytochrome P450 11B2, mitochondrial (Homo sapiens, UniProt P19099)?
8.15

Which measured pIC50 belongs to CN(C)C(=O)c1ccc(-c2ccncc2)c(OCCc2ccccc2)c1 , tested on Cytochrome P450 11B2, mitochondrial (Homo sapiens, UniProt P19099)?
6.09

Which measured pIC50 belongs to COc1ccc(-c2ccncc2)c(OCCc2ccccc2)c1 , tested on Cytochrome P450 11B2, mitochondrial (Homo sapiens, UniProt P19099)?
7.15

---

assay: Retention time of the compound by HPLC analysis; assay type: physicochemical
RECORDED_METRIC: Retention_time (min)
Kindly provide the numeric value in min only, without the unit symbol.

Consider the reported Retention_time for these molecules:
{"SMILES_INPUT": "COc1ccc(-c2cccnc2)c(OCCc2ccccc2)c1", "REPORTED": 9.07}
{"SMILES_INPUT": "N#Cc1ccc(-c2cccnc2)c(OCCc2ccccc2)c1", "REPORTED": 8.85}
{"SMILES_INPUT": "O=[N+]([O-])c1ccc(-c2ccncc2)c(OCc2ccccc2)c1", "REPORTED": 9.02}

Turning to the following molecule.
// returns reported Retention_time for input O=[N+]([O-])c1ccc(-c2cccnc2)c(OCc2ccccc2)c1
9.07

---

species on record: Homo sapiens; test: Selectivity index, ratio of IC50 for human CYP11B2 to IC50 for human CYP11B1
Under this convention, 1 denotes Selectivity Index strictly below 1 and -1 denotes Selectivity Index at or above 1.

Completed entries (count: 6):
{"SMILES_INPUT": "O=[N+]([O-])c1ccc(-c2cccnc2)cc1OCCc1ccccc1", "CLASS": 1}
{"SMILES_INPUT": "O=C(Nc1ccc(-c2cccnc2)c(OCc2ccccc2)c1)c1ccc(F)cc1", "CLASS": 1}
{"SMILES_INPUT": "c1ccc(CCOc2cccnc2-c2ccncc2)cc1", "CLASS": 1}
{"SMILES_INPUT": "O=[N+]([O-])c1ccc(Cc2cccnc2)c(OCCc2ccccc2)c1", "CLASS": -1}
{"SMILES_INPUT": "CC(=O)Nc1ccc(-c2cccnc2)c(OCc2ccccc2)c1", "CLASS": -1}
{"SMILES_INPUT": "N#Cc1ccc(-c2ccncc2)c(OCCc2ccccc2)c1", "CLASS": -1}

Confirm or reject: Selectivity Index of Fc1ccc(-c2ccncc2)c(OCCc2ccccc2)c1 lies strictly below 1
-1

Confirm or reject: Selectivity Index of O=[N+]([O-])c1ccc(-c2ccncc2)c(OCc2ccccc2)c1 lies strictly below 1
-1

Confirm or reject: Selectivity Index of c1ccc(-c2ccc(Cn3ccnc3)cn2)cc1 lies strictly below 1
-1

Confirm or reject: Selectivity Index of Cc1cncc(Cc2ccc(-c3ccccc3)nc2)c1 lies strictly below 1
-1

---

Parameter: Selectivity Index. Scope: all listed entries.
species on record: Homo sapiens; assay: Selectivity index, ratio of IC50 for human CYP11B2 to IC50 for human CYP11B1
Form: value (number only, do not type unit).

Consider the reported Selectivity Index for these compounds:
{"SMILES_INPUT": "O=[N+]([O-])c1ccc(-c2cccnc2)c(OCCc2ccccc2)c1", "REPORTED": 4.1}
{"SMILES_INPUT": "c1ccc(CCOc2cccnc2-c2cccnc2)cc1", "REPORTED": 0.9}
{"SMILES_INPUT": "CN(C)C(=O)c1ccc(-c2ccncc2)c(OCCc2ccccc2)c1", "REPORTED": 0.7}
{"SMILES_INPUT": "COc1ccc(-c2cccnc2)c(OCCc2ccccc2)c1", "REPORTED": 1.3}

Turning to the following compound.
// returns reported Selectivity Index for input Nc1ccc(-c2cccnc2)c(OCc2ccccc2)c1
0.5

Source of measurements: ChEMBL document CHEMBL3421536
